These measurements were taken from the supplement of paper PMC11424490.

- System: NCI-H2122
- TEST METHOD NOTES: relative IC50 of cell viability (CellTiter-Glo); higher = less potent
Collected relative IC50 of cell viability values appear next to each entry.
Give your result in nM as a bare value.

Examples with answers:
{"columns": ["COMPOUND", "OBSERVABLE", "REPORTED"],
 "data": [
  ["CCC1=C[C@@H]2CN(C1)Cc1c([nH]c3ccccc13)[C@@](C(=O)OC)(c1cc3c(cc1OC)N(C)[C@H]1[C@@](O)(C(=O)OC)[C@H](OC(C)=O)[C@]4(CC)C=CCN5CC[C@]31[C@@H]54)C2 [Vinorelbine] (top concentration tested 100.01 nM)", "relative IC50 of cell viability", 9.06],
  ["NC(=O)c1cnc(N[C@@H]2CCCC[C@@H]2N)nc1Nc1cccc(-n2nccn2)c1 (top concentration tested 10000 nM)", "relative IC50 of cell viability", 3860],
  ["Nc1nc(Cl)nc2c1ncn2[C@@H]1O[C@H](CO)[C@@H](O)[C@@H]1F [Clofarabine] (top concentration tested 10000 nM)", "relative IC50 of cell viability", 322]
]}

Record request: relative IC50 of cell viability value, item C=CC(=O)N1CCN(c2nc(=O)n(-c3c(C)ccnc3C(C)C)c3nc(-c4c(O)cccc4F)c(F)cc23)[C@@H](C)C1 [AMG510 / Sotorasib] (top concentration tested 1000 nM)
43

Record request: relative IC50 of cell viability value, item COc1cc(Nc2ncc(F)c(Nc3ccc4c(n3)N(COP(=O)(O)O)C(=O)C(C)(C)O4)n2)cc(OC)c1OC [Fostamatinib] (top concentration tested 9999.9 nM)
8750

Record request: relative IC50 of cell viability value, item COc1cc(Nc2ncc3c(n2)-c2ccc(Cl)cc2C(c2c(F)cccc2OC)=NC3)ccc1C(=O)O [MLN8237] (top concentration tested 999.95 nM)
75.9

====

- Tested on: NCI-H2122
- TEST METHOD NOTES: combination cScore with sotorasib (Bliss gap around IC50) (%PoC); higher = stronger additive effect
OBSERVABLE: combination cScore with sotorasib
When you answer, write just the number.

{"columns": ["COMPOUND", "TEST SYSTEM", "combination cScore with sotorasib"],
 "data": [
  ["CCc1cccc(CC)c1NC(=O)c1nn(C)c2c1CCc1cnc(Nc3ccc(C(=O)NC4CCN(C)CC4)cc3OC(F)(F)F)nc1-2 [NMS-P715] + C=CC(=O)N1CCN(c2nc(=O)n(-c3c(C)ccnc3C(C)C)c3nc(-c4c(O)cccc4F)c(F)cc23)[C@@H](C)C1", "NCI-H2122", 2.28]
]}

Form entry - test system: NCI-H2122; read-out: combination cScore with sotorasib; compound: Nc1ccn([C@@H]2O[C@H](CO)[C@@H](O)C2(F)F)c(=O)n1 [Gemcitabine] + C=CC(=O)N1CCN(c2nc(=O)n(-c3c(C)ccnc3C(C)C)c3nc(-c4c(O)cccc4F)c(F)cc23)[C@@H](C)C1
3.14

====

- Test system: NCI-H358
- TEST METHOD NOTES: combination cScore with adagrasib (Bliss gap around IC50) (%PoC); higher = stronger additive effect
Collected combination cScore with adagrasib values appear next to each entry.
When you answer, write just the number.

Examples with answers:
{"columns": ["COMPOUND", "TEST SYSTEM", "OBSERVABLE", "REPORTED"],
 "data": [
  ["C[C@H](Nc1ccc2c(c1)OCCn1cc(N3C(=O)OC[C@H]3C(F)F)nc1-2)C(N)=O [GDC-0077] + C=C(F)C(=O)N1CCN(c2nc(OC[C@@H]3CCCN3C)nc3c2CCN(c2cccc4cccc(Cl)c24)C3)C[C@@H]1CC#N [adagrasib]", "NCI-H358", "combination cScore with adagrasib", 5.51],
  ["COc1cc(Nc2c(C#N)cnc3cc(OCCCN4CCN(C)CC4)c(OC)cc23)c(Cl)cc1Cl [Bosutinib] + C=C(F)C(=O)N1CCN(c2nc(OC[C@@H]3CCCN3C)nc3c2CCN(c2cccc4cccc(Cl)c24)C3)C[C@@H]1CC#N [adagrasib]", "NCI-H358", "combination cScore with adagrasib", 1.58]
]}

Record request: combination cScore with adagrasib value, item Cc1nc(-c2cn3c(n2)-c2ccc(-c4cnn(C(C)(C)C(N)=O)c4)cc2OCC3)n(C(C)C)n1 [Taselisib] + C=C(F)C(=O)N1CCN(c2nc(OC[C@@H]3CCCN3C)nc3c2CCN(c2cccc4cccc(Cl)c24)C3)C[C@@H]1CC#N [adagrasib]
7.08

Record request: combination cScore with adagrasib value, item O=C(/C=C/c1cccc(S(=O)(=O)Nc2ccccc2)c1)NO [Belinostat] + C=C(F)C(=O)N1CCN(c2nc(OC[C@@H]3CCCN3C)nc3c2CCN(c2cccc4cccc(Cl)c24)C3)C[C@@H]1CC#N [adagrasib]
-4.65

Record request: combination cScore with adagrasib value, item CC1(N)CCN(c2cnc(-c3cccc(Cl)c3Cl)c(N)n2)CC1 [SHP099] + C=C(F)C(=O)N1CCN(c2nc(OC[C@@H]3CCCN3C)nc3c2CCN(c2cccc4cccc(Cl)c24)C3)C[C@@H]1CC#N [adagrasib]
1.39

Record request: combination cScore with adagrasib value, item CC(=O)c1c(C)c2cnc(Nc3ccc(N4CCNCC4)cn3)nc2n(C2CCCC2)c1=O [Palbociclib] + C=C(F)C(=O)N1CCN(c2nc(OC[C@@H]3CCCN3C)nc3c2CCN(c2cccc4cccc(Cl)c24)C3)C[C@@H]1CC#N [adagrasib]
2.62

Record request: combination cScore with adagrasib value, item CC[C@H](Nc1ncnc2[nH]cnc12)c1nc2cccc(F)c2c(=O)n1-c1ccccc1 [Cal-101] + C=C(F)C(=O)N1CCN(c2nc(OC[C@@H]3CCCN3C)nc3c2CCN(c2cccc4cccc(Cl)c24)C3)C[C@@H]1CC#N [adagrasib]
5.08

Record request: combination cScore with adagrasib value, item CC(C)n1nc(-c2ccc3oc(N)nc3c2)c2c(N)ncnc21 [MLN-0128] + C=C(F)C(=O)N1CCN(c2nc(OC[C@@H]3CCCN3C)nc3c2CCN(c2cccc4cccc(Cl)c24)C3)C[C@@H]1CC#N [adagrasib]
0.5

====

- System: SW837
- TEST METHOD NOTES: combination cScore with adagrasib (Bliss gap around IC50) (%PoC); higher = stronger additive effect
OBSERVABLE: combination cScore with adagrasib
When you answer, write just the number.

{"columns": ["COMPOUND", "TEST SYSTEM", "combination cScore with adagrasib"],
 "data": [
  ["CC(C)C[C@H](NC(=O)[C@H](Cc1ccccc1)NC(=O)c1cnccn1)B(O)O [Bortezomib] + C=C(F)C(=O)N1CCN(c2nc(OC[C@@H]3CCCN3C)nc3c2CCN(c2cccc4cccc(Cl)c24)C3)C[C@@H]1CC#N", "SW837", -1.68]
]}

Consider the additional compound presented here.
Record request: combination cScore with adagrasib value, item COc1cc2c(NC3CCN(C(C)C)CC3)nc(C3CCCCC3)nc2cc1OCCCN1CCCC1 [UNC0638] + C=C(F)C(=O)N1CCN(c2nc(OC[C@@H]3CCCN3C)nc3c2CCN(c2cccc4cccc(Cl)c24)C3)C[C@@H]1CC#N
13.2

====

- System: NCI-H358
- TEST METHOD NOTES: combination cScore with adagrasib (Bliss gap around IC50) (%PoC); higher = stronger additive effect
Collected combination cScore with adagrasib values appear next to each entry.
When you answer, write just the number.

{"columns": ["COMPOUND", "combination cScore with adagrasib"],
 "data": [
  ["Nc1cc(C(F)(F)F)c(-c2cc(N3CCOCC3)nc(N3CCOCC3)n2)cn1 [BKM120] + C=C(F)C(=O)N1CCN(c2nc(OC[C@@H]3CCCN3C)nc3c2CCN(c2cccc4cccc(Cl)c24)C3)C[C@@H]1CC#N [adagrasib]", 2.43]
]}

Consider the additional compound presented here.
Record request: combination cScore with adagrasib value, item COc1cc2nc(C)nc(N[C@H](C)c3cc(N)cc(C(F)(F)F)c3)c2cc1O[C@H]1CCOC1 [BI-3406 (SOSi)] + C=C(F)C(=O)N1CCN(c2nc(OC[C@@H]3CCCN3C)nc3c2CCN(c2cccc4cccc(Cl)c24)C3)C[C@@H]1CC#N [adagrasib]
10.7

====

- System: NCI-H2122
- TEST METHOD NOTES: combination cScore with sotorasib (Bliss gap around IC50) (%PoC); higher = stronger additive effect
OBSERVABLE: combination cScore with sotorasib

{"columns": ["COMPOUND", "REPORTED"],
 "data": [
  ["CC(=O)O[C@H]1C(=O)[C@@]2(C)[C@H]([C@H](OC(=O)c3ccccc3)[C@]3(O)C[C@H](OC(=O)[C@H](O)[C@@H](NC(=O)c4ccccc4)c4ccccc4)C(C)=C1C3(C)C)[C@]1(OC(C)=O)CO[C@@H]1C[C@@H]2O [Paclitaxel] + C=CC(=O)N1CCN(c2nc(=O)n(-c3c(C)ccnc3C(C)C)c3nc(-c4c(O)cccc4F)c(F)cc23)[C@@H](C)C1", 9.86]
]}

Consider the additional compound presented here.
Record request: combination cScore with sotorasib value, item Nc1cc(C(F)(F)F)c(-c2cc(N3CCOCC3)nc(N3CCOCC3)n2)cn1 [BKM120] + C=CC(=O)N1CCN(c2nc(=O)n(-c3c(C)ccnc3C(C)C)c3nc(-c4c(O)cccc4F)c(F)cc23)[C@@H](C)C1
16.9
